Recorded IC50 by entry
target: GTPase KRas (Homo sapiens, UniProt P01116, G12V); experiment: Inhibition of His6-tagged KRas G12V mutant (unknown origin) expressed in Escherichia coli BL21(DE3) cells assessed as reduction in Ras/GST-fused Raf RBD interaction incubated for 1 hr by HTRF assay; conditions: read-out: IC50
Sequence (P01116 whole entry G12V, the tested form may be a part): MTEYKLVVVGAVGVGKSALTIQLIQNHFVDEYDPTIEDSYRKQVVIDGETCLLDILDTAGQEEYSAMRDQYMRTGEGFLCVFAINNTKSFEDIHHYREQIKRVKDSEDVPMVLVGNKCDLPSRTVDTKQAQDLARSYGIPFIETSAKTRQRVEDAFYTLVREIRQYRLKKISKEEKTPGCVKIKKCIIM
Express it in nM; write the number only.

Worked examples follow.
- C[C@@H]1NC(=O)[C@@H](Cc2ccccc2)NC(=O)[C@@H]2CCCCNC(=O)c3cc(cc(c3)C(=O)N[C@H](Cc3ccc4ccccc4c3)C(=O)N[C@@H](CO)C(=O)N[C@@H](CC(N)=O)C(=O)N[C@H](Cc3ccc4ccccc4c3)C(=O)N[C@@H](c3ccccc3)C(=O)N2)C(=O)NC[C@@H](C(=O)N[C@@H](CCN)CC(=O)N[C@H](CCCNC(=N)N)C(=O)N[C@@H](Cc2ccc(F)cc2)C(=O)N[C@H](C)C(N)=O)NC(=O)[C@H](CCCNC(=N)N)NC(=O)[C@@H](CCCNC(=N)N)NC1=O: 700
- C[C@@H]1NC(=O)[C@@H](Cc2ccccc2)NC(=O)[C@@H]2CCCCNC(=O)c3cc(cc(c3)C(=O)N[C@H](Cc3ccc4ccccc4c3)C(=O)N[C@@H](CO)C(=O)N[C@@H](CC(N)=O)C(=O)N[C@H](Cc3ccc4ccccc4c3)C(=O)N[C@@H](c3ccccc3)C(=O)N2)C(=O)NC[C@@H](C(=O)N[C@@H](CC(N)=O)C(=O)N[C@H](CCCNC(=N)N)C(=O)N[C@@H](Cc2ccc(F)c(F)c2)C(=O)N[C@H](C)C(N)=O)NC(=O)[C@H](CCCNC(=N)N)NC(=O)[C@@H](CCCNC(=N)N)NC1=O: 500
- C[C@@H]1NC(=O)[C@@H](Cc2ccccc2)NC(=O)[C@@H]2CCCCNC(=O)c3cc(cc(c3)C(=O)N[C@H](Cc3ccc4ccccc4c3)C(=O)N[C@@H](CO)C(=O)N[C@@H](CC(N)=O)C(=O)N[C@H](Cc3ccc4ccccc4c3)C(=O)N[C@@H](c3ccccc3)C(=O)N2)C(=O)NC[C@@H](C(=O)N[C@@H](CC(N)=O)C(=O)N[C@H](CCCNC(=N)N)C(=O)N[C@@H](Cc2ccccc2)C(=O)N[C@H](C)C(N)=O)NC(=O)[C@H](CCCNC(=N)N)NC(=O)[C@@H](CCCNC(=N)N)NC1=O: 280
- C[C@@H]1NC(=O)[C@@H](Cc2ccccc2)NC(=O)[C@@H]2CCCCNC(=O)c3cc(cc(c3)C(=O)N[C@H](Cc3ccc4ccccc4c3)C(=O)N[C@@H](CO)C(=O)N[C@@H](CC(N)=O)C(=O)N[C@H](Cc3ccc4ccccc4c3)C(=O)N[C@@H](c3ccccc3)C(=O)N2)C(=O)NC[C@@H](C(=O)N[C@@H](CCN)CC(=O)N[C@H](CCCNC(=N)N)C(=O)N[C@@H](Cc2ccc(F)cc2)C(=O)N[C@H](C)C(=O)N[C@@H](CCCCN)C(N)=O)NC(=O)[C@H](CCCNC(=N)N)NC(=O)[C@@H](CCCNC(=N)N)NC1=O: 890
- C[C@@H]1NC(=O)[C@@H](Cc2ccccc2)NC(=O)[C@@H]2CCCCNC(=O)c3cc(cc(c3)C(=O)N[C@H](Cc3ccc4ccccc4c3)C(=O)N[C@@H](CO)C(=O)N[C@@H](CC(N)=O)C(=O)N[C@H](Cc3ccc4ccccc4c3)C(=O)N[C@@H](c3ccccc3)C(=O)N2)C(=O)NC[C@@H](C(=O)N[C@@H](CCC(N)=O)C(=O)N[C@H](CCCNC(=N)N)C(=O)N[C@@H](Cc2ccccc2)C(=O)N[C@H](C)C(N)=O)NC(=O)[C@H](CCCNC(=N)N)NC(=O)[C@@H](CCCNC(=N)N)NC1=O: 230

Attention now turns to another entry.
What value of measured IC50 is listed for C[C@@H]1NC(=O)[C@@H](Cc2ccccc2)NC(=O)[C@@H]2CCCCNC(=O)c3cc(cc(c3)C(=O)N[C@H](Cc3ccc4ccccc4c3)C(=O)N[C@@H](CO)C(=O)N[C@@H](CC(N)=O)C(=O)N[C@H](Cc3ccc4ccccc4c3)C(=O)N[C@@H](c3ccccc3)C(=O)N2)C(=O)NC[C@@H](C(=O)N[C@@H](CCN)CC(=O)N[C@H](CCCNC(=N)N)C(=O)N[C@@H](Cc2ccccc2)C(=O)N[C@H](C)C(N)=O)NC(=O)[C@H](CCCNC(=N)N)NC(=O)[C@@H](CCCNC(=N)N)NC1=O ?
510
